B1: MLH1 (parent)
chain: YNIATRRKALKNPSEEYGKILEVV

Variants of: B1
method description: protein stability index of a GFP-peptide fusion (GPS, HEK-293T) (PSI 1-6); higher = more stable;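 further: lentivirally expressed fusions sorted by FACS into six bins by GFP to DsRed ratio, PSI derived from sequencing read proportions per bin multiplied by bin number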
setup conditions: c terminus: a fixed tail appended
Class 1: protein stability index at least 3. Class -1: protein stability index below 3.

variant_designation=L21Q qualitative_label=1
variant_designation=A4Q qualitative_label=-1
variant_designation=L21I qualitative_label=-1
variant_designation=K8H qualitative_label=-1
variant_designation=G18L qualitative_label=-1
variant_designation=S14L qualitative_label=-1
variant_designation=V23N qualitative_label=1
variant_designation=I20D qualitative_label=1
variant_designation=V24L qualitative_label=-1
variant_designation=K8C qualitative_label=-1
variant_designation=V24P qualitative_label=1
variant_designation=N2G qualitative_label=-1
variant_designation=A9K qualitative_label=-1
variant_designation=G18C qualitative_label=-1
variant_designation=R7A qualitative_label=-1
variant_designation=K19N qualitative_label=1
variant_designation=E22P qualitative_label=-1
variant_designation=E22H qualitative_label=-1
variant_designation=I3A qualitative_label=1
variant_designation=I3E qualitative_label=-1
variant_designation=L10T qualitative_label=1
variant_designation=E16G qualitative_label=-1
variant_designation=N2R qualitative_label=-1
variant_designation=V24D qualitative_label=1
variant_designation=Y1I qualitative_label=-1
variant_designation=E15I qualitative_label=-1
variant_designation=I20W qualitative_label=-1
variant_designation=E15V qualitative_label=-1
variant_designation=I20G qualitative_label=1
variant_designation=E16M qualitative_label=-1
variant_designation=P13T qualitative_label=-1
variant_designation=Y17K qualitative_label=1
variant_designation=R6Y qualitative_label=-1
variant_designation=Y1K qualitative_label=1
variant_designation=G18I qualitative_label=-1
variant_designation=R6G qualitative_label=-1
variant_designation=N12V qualitative_label=-1
variant_designation=L21V qualitative_label=1
variant_designation=I3P qualitative_label=1
variant_designation=N2L qualitative_label=-1
variant_designation=E22V qualitative_label=1
variant_designation=I20A qualitative_label=1
